- TARGET OR TEST SYSTEM: CK1α (Homo sapiens, UniProt P48729+Q96SW2)
- Sequence (P48729 whole entry, one chain of several): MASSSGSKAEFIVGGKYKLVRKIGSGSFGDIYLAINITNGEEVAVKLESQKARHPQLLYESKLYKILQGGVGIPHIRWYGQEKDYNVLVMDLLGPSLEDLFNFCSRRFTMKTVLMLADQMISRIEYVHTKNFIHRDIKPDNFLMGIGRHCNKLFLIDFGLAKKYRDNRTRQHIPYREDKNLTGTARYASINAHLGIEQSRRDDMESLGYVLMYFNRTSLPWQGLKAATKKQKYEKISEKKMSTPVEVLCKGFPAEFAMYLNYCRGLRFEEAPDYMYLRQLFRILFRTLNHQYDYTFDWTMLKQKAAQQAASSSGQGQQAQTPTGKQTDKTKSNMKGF
- MEASUREMENT PROTOCOL: ePL degradation assay, MDS-L/CK1α ePL OE_GSPT1G575N OE cells
- TEST PARAMETERS: degradation, 4 hr incubation, top conc 10 uM, N ≥ 3, read-out: CK1a EC50
pEC50: −log10 of the molar value.
READOUT TYPE: pEC50

Need pEC50 of O=C1CCC(N2C(=O)c3cccc([C@@H]4C[C@]4(C(=O)OCC(Cl)(Cl)Cl)c4ccc(Br)cc4)c3C2=O)C(=O)N1 (stereo partly drawn) [Compound 14a] , thanks.
< 5.00

Now this one: O=C1CCC(N2Cc3ccc([C@@H]4C[C@]4(C(=O)OCC(Cl)(Cl)Cl)c4ccc(Br)cc4)cc3C2=O)C(=O)N1 (stereo partly drawn) [Compound 17a]
< 5.00

Now this one: O=C1CCC(N2Cc3cccc(C4=C[C@@]4(C(=O)OCC(Cl)(Cl)Cl)c4ccc(Br)cc4)c3C2=O)C(=O)N1 (stereo partly drawn) [Compound 24b]
< 5.00

Now this one: O=C1CCC(N2Cc3cc(C4=C[C@@]4(C(=O)OCC(Cl)(Cl)Cl)c4ccc(Br)cc4)ccc3C2=O)C(=O)N1 (stereo partly drawn) [Compound 21b]
6.60

Now this one: O=C1CCC(N2Cc3c(cccc3C3=C[C@]3(C(=O)OCC(Cl)(Cl)Cl)c3ccc(Br)cc3)C2=O)C(=O)N1 (stereo partly drawn) [Compound 19a]
6.77

Now this one: O=C1CCC(N2C(=O)c3ccc([C@H]4C[C@@]4(C(=O)OCC(Cl)(Cl)Cl)c4ccc(Br)cc4)cc3C2=O)C(=O)N1 (stereo partly drawn) [Compound 16b]
< 5.00

Now this one: O=C1CCC(N2Cc3c(cccc3C3=C[C@@]3(C(=O)OCC(Cl)(Cl)Cl)c3ccc(Br)cc3)C2=O)C(=O)N1 (stereo partly drawn) [Compound 19b]
5.82

Now this one: O=C1CCC(N2Cc3ccc(C4=C[C@@]4(C(=O)OCC(Cl)(Cl)Cl)c4ccc(Br)cc4)cc3C2=O)C(=O)N1 (stereo partly drawn) [Compound 23b]
< 5.00

Now this one: O=C1CCC(N2Cc3c(cccc3[C@@H]3C[C@]3(C(=O)OCC(Cl)(Cl)Cl)c3ccc(Br)cc3)C2=O)C(=O)N1 (stereo partly drawn) [Compound 13a]
< 5.00

Now this one: O=C1CCC(N2C(=O)c3cccc(C4=C[C@@]4(C(=O)OCC(Cl)(Cl)Cl)c4ccc(Br)cc4)c3C2=O)C(=O)N1 (stereo partly drawn) [Compound 20b]
5.68

Now this one: O=C1CCC(N2Cc3ccc([C@H]4C[C@@]4(C(=O)OCC(Cl)(Cl)Cl)c4ccc(Br)cc4)cc3C2=O)C(=O)N1 (stereo partly drawn) [Compound 17b]
< 5.00

Now this one: O=C1CCC(N2Cc3cccc(C4=C[C@]4(C(=O)OCC(Cl)(Cl)Cl)c4ccc(Br)cc4)c3C2=O)C(=O)N1 (stereo partly drawn) [Compound 24a]
< 5.00

Now this one: O=C1CCC(N2C(=O)c3ccc([C@@H]4C[C@]4(C(=O)OCC(Cl)(Cl)Cl)c4ccc(Br)cc4)cc3C2=O)C(=O)N1 (stereo partly drawn) [Compound 16a]
< 5.00

Now this one: O=C1CCC(N2C(=O)c3cccc(C4=C[C@]4(C(=O)OCC(Cl)(Cl)Cl)c4ccc(Br)cc4)c3C2=O)C(=O)N1 (stereo partly drawn) [Compound 20a]
5.82

Now this one: O=C1CCC(N2Cc3cccc([C@@H]4C[C@]4(C(=O)OCC(Cl)(Cl)Cl)c4ccc(Br)cc4)c3C2=O)C(=O)N1 (stereo partly drawn) [Compound 18a]
< 5.00

---

Give CK1a Ymin for every item shown.
- TARGET OR TEST SYSTEM: CK1α (Homo sapiens, UniProt P48729+Q96SW2)
- Construct: expressed in transfected cells; host or cells: MDS-L
- MEASUREMENT PROTOCOL: ePL degradation assay, MDS-L/CK1α ePL OE_GSPT1G575N OE cells
- Assay type: cell-based
- TEST PARAMETERS: depth of degradation (100% = no reduction, 0% = complete degradation), 4 hr, N ≥ 3
Please reply with the bare figure in % and do not write the unit itself.

Need CK1a Ymin of O=C1CCC(N2C(=O)c3cccc([C@H]4C[C@@]4(C(=O)OCC(Cl)(Cl)Cl)c4ccc(Br)cc4)c3C2=O)C(=O)N1 (stereo partly drawn) [Compound 14b] , thanks.
94

Now this one: O=C1CCC(N2C(=O)c3ccc([C@H]4C[C@@]4(C(=O)OCC(Cl)(Cl)Cl)c4ccc(Br)cc4)cc3C2=O)C(=O)N1 (stereo partly drawn) [Compound 16b]
85

Now this one: O=C1CCC(N2Cc3ccc([C@@H]4C[C@]4(C(=O)OCC(Cl)(Cl)Cl)c4ccc(Br)cc4)cc3C2=O)C(=O)N1 (stereo partly drawn) [Compound 17a]
98

---

Give pEC50 for every item shown.
- TARGET OR TEST SYSTEM: SALL4 (Homo sapiens, UniProt Q96SW2+Q9UJQ4)
- Construct: endogenous in cells
- Sequence (Q9UJQ4 whole entry): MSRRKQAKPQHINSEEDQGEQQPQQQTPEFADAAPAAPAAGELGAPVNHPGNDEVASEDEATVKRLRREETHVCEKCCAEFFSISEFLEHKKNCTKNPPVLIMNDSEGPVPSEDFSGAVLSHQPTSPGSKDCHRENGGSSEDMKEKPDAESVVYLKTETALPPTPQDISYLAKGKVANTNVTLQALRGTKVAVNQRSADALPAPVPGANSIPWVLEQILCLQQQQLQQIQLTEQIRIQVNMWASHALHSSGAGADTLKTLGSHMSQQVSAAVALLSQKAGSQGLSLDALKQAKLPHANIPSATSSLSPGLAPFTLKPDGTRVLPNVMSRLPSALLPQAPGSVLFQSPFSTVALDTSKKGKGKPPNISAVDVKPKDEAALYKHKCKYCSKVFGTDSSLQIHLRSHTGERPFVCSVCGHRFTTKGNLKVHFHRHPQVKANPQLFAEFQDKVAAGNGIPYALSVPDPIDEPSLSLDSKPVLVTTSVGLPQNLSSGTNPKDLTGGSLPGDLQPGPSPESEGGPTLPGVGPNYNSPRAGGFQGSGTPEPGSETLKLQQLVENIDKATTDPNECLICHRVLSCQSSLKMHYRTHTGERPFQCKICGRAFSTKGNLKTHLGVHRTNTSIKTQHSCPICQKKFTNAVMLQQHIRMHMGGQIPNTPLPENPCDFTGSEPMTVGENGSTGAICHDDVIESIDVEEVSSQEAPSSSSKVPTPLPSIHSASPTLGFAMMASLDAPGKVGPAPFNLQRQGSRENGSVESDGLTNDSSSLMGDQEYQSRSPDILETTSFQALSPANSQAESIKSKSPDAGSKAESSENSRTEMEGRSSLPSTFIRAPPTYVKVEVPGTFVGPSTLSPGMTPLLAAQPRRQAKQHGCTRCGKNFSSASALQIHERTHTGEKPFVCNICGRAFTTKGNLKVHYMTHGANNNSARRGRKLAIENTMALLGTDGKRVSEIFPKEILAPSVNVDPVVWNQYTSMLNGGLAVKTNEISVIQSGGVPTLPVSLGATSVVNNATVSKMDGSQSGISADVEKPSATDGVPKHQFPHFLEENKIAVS
- Sequence (Q96SW2 whole entry): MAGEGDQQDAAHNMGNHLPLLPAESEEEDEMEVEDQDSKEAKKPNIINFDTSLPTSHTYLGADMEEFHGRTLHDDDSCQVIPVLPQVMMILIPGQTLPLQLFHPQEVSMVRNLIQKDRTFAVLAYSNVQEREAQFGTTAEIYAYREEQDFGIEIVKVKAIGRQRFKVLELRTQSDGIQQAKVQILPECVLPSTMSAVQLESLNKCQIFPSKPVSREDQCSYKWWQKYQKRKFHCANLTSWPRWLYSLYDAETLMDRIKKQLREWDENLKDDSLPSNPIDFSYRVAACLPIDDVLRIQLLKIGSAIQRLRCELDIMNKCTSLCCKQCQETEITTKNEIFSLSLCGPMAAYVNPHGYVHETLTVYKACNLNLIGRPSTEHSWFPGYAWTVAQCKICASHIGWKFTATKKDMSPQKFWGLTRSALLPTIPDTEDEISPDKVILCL
- Sequence (Q16531 whole entry partner): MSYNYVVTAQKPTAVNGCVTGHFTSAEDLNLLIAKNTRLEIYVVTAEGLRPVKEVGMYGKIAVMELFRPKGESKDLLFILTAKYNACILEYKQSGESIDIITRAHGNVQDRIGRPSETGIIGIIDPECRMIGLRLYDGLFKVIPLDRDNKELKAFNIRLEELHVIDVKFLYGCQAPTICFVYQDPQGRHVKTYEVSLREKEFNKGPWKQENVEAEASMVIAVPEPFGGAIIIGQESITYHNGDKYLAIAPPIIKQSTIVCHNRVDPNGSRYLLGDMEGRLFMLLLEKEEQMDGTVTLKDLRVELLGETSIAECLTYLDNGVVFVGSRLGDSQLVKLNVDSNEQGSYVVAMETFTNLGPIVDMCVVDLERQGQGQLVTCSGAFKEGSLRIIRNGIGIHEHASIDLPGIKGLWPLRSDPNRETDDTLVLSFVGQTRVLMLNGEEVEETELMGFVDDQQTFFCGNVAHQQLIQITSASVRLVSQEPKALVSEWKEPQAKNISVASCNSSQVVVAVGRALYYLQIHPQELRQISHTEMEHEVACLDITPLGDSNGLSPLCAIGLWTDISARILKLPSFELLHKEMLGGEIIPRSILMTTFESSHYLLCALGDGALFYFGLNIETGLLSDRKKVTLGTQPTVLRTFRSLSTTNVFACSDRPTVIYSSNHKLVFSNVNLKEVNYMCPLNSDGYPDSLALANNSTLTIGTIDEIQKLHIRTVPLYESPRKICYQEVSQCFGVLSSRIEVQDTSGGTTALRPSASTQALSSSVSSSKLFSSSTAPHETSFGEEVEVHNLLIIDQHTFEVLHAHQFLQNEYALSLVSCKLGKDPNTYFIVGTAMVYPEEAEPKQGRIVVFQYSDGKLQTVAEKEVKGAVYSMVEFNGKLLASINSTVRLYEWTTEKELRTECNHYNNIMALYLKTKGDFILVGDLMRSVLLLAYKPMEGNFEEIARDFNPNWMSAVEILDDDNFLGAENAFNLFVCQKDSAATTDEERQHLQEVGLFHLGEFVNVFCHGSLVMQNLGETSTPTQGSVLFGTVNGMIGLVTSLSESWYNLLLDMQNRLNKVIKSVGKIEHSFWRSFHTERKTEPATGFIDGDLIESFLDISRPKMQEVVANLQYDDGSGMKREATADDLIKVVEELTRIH
- MEASUREMENT PROTOCOL: HiBiT degradation assay, NCCIT/SALL4-HiBiT KI cells
- TEST PARAMETERS: degradation, 2 hr incubation, top conc 10 uM, N ≥ 3
pEC50: −log10 of the molar value.

Need pEC50 of O=C1CCC(N2Cc3cc([C@@H]4C[C@]4(C(=O)OCC(Cl)(Cl)Cl)c4ccc(Br)cc4)ccc3C2=O)C(=O)N1 (stereo partly shown) [Compound 15a] , thanks.
< 5.00

Now this one: O=C1CCC(N2Cc3c(cccc3[C@H]3C[C@@]3(C(=O)OCC(Cl)(Cl)Cl)c3ccc(Br)cc3)C2=O)C(=O)N1 (stereo partly shown) [Compound 13b]
< 5.00

Now this one: O=C1CCC(N2Cc3cccc(C4=C[C@@]4(C(=O)OCC(Cl)(Cl)Cl)c4ccc(Br)cc4)c3C2=O)C(=O)N1 (stereo partly shown) [Compound 24b]
< 5.00

Now this one: O=C1CCC(N2Cc3ccc([C@H]4C[C@@]4(C(=O)OCC(Cl)(Cl)Cl)c4ccc(Br)cc4)cc3C2=O)C(=O)N1 (stereo partly shown) [Compound 17b]
< 5.00

Now this one: O=C1CCC(N2C(=O)c3cccc([C@@H]4C[C@]4(C(=O)OCC(Cl)(Cl)Cl)c4ccc(Br)cc4)c3C2=O)C(=O)N1 (stereo partly shown) [Compound 14a]
< 5.00

Now this one: O=C1CCC(N2C(=O)c3cccc([C@H]4C[C@@]4(C(=O)OCC(Cl)(Cl)Cl)c4ccc(Br)cc4)c3C2=O)C(=O)N1 (stereo partly shown) [Compound 14b]
< 5.00

Now this one: O=C1CCC(N2C(=O)c3cccc(C4=C[C@]4(C(=O)OCC(Cl)(Cl)Cl)c4ccc(Br)cc4)c3C2=O)C(=O)N1 (stereo partly shown) [Compound 20a]
6.25

Now this one: O=C1CCC(N2Cc3c(cccc3[C@@H]3C[C@]3(C(=O)OCC(Cl)(Cl)Cl)c3ccc(Br)cc3)C2=O)C(=O)N1 (stereo partly shown) [Compound 13a]
< 5.00

Now this one: O=C1CCC(N2C(=O)c3cccc(C4=C[C@@]4(C(=O)OCC(Cl)(Cl)Cl)c4ccc(Br)cc4)c3C2=O)C(=O)N1 (stereo partly shown) [Compound 20b]
5.55

Now this one: O=C1CCC(N2Cc3ccc(C4=C[C@@]4(C(=O)OCC(Cl)(Cl)Cl)c4ccc(Br)cc4)cc3C2=O)C(=O)N1 (stereo partly shown) [Compound 23b]
< 5.00

Now this one: O=C1CCC(N2C(=O)c3ccc([C@H]4C[C@@]4(C(=O)OCC(Cl)(Cl)Cl)c4ccc(Br)cc4)cc3C2=O)C(=O)N1 (stereo partly shown) [Compound 16b]
6.39

Now this one: O=C1CCC(N2C(=O)c3ccc([C@@H]4C[C@]4(C(=O)OCC(Cl)(Cl)Cl)c4ccc(Br)cc4)cc3C2=O)C(=O)N1 (stereo partly shown) [Compound 16a]
< 5.00

Now this one: O=C1CCC(N2Cc3cccc([C@H]4C[C@@]4(C(=O)OCC(Cl)(Cl)Cl)c4ccc(Br)cc4)c3C2=O)C(=O)N1 (stereo partly shown) [Compound 18b]
< 5.00

---

- TARGET OR TEST SYSTEM: SALL4 (Homo sapiens, UniProt Q96SW2+Q9UJQ4)
- Construct: endogenous in cells
- MEASUREMENT PROTOCOL: HiBiT degradation assay, NCCIT/SALL4-HiBiT KI cells
- TEST PARAMETERS: degradation, 2 hr incubation, top conc 10 uM, N ≥ 3
- Procedure: Section 6: Assay Protocols Fluorescence Resonance Energy Transfer-Based NSD@ PWWP Cereblon Binding Assay. […] Compounds for testing were spotted into a 1536 well plate (Greiner Cat#782075). CRBN and Tracer solution were incubated in compound wells for 20 minutes. […] Plates were incubated for 30 minutes before being read on Pherastar FSX plate reader using TR-FRET module (Excitation 340nm, Emssion 615/665nm). ePL and HiBiT degradation assays […]
READOUT TYPE: EC50 (nM)
Please reply with the bare figure in nM and do not write the unit itself.

Need EC50 of O=C1CCC(N2Cc3c(cccc3C3=C[C@@]3(C(=O)OCC(Cl)(Cl)Cl)c3ccc(Br)cc3)C2=O)C(=O)N1 (stereo partly shown) [Compound 19b] , thanks.
170

Now this one: O=C1CCC(N2Cc3c(cccc3C3=C[C@]3(C(=O)OCC(Cl)(Cl)Cl)c3ccc(Br)cc3)C2=O)C(=O)N1 (stereo partly shown) [Compound 19a]
19
